Measured values drawn from PubChem BioAssay (NCI) for this set.

Tested on: 786-0 renal
Experiment: NCI tumour cell line growth inhibition, 48 h
Property: TGI

Cc1cn(C2CC(O)C(CO[Si](C)(C)C(C)(C)C)OC2OC(C)C)c(=O)[nH]c1=O (configuration not stated)
31.6 µM
C=C(C(=O)O)[C@@H]1C[C@@H](OC(C)=O)[C@]2(C)CC/C=C(\C)CCC[C@H](C)[C@H](O)[C@@H]1O2
> 100 µM
Cc1nn(C(=O)Cc2ccccc2)c2c1C(c1ccc(Cl)cc1)SC(N)=N2 (configuration not stated)
> 100 µM
COc1ccc(-c2coc3c4c(ccc3c2=O)OCO4)cc1OC
> 100 µM

Complete the entry with TGI for COc1ccc(OC)c(C(Cc2ccnc3ccccc23)Cc2ccnc3ccccc23)c1
> 10 µM

Could you please provide reported TGI for COCC1(CO)C(=O)C2CCN1CC2 (configuration not stated) ? Thanks!
35.5 µM

// fetch TGI given entry Cn1cc(C2=C(c3cccc(Br)c3)C(=O)NC2=O)c2ccccc21
> 25 µM

Let me know recorded TGI for COc1ccc(C2OC(N)=C(C#N)C3=C2CCCC3C)cc1OC (configuration not stated) , thanks.
> 100 µM

----------
Test system: MDA-MB-435
Form entry, call: pick from active, inactive

COCC1(CO)C(=O)C2CCN1CC2 (stereo not given)
inactive

For O=S(=O)(Nc1ccc(F)cc1F)c1ccc(-c2cnc(C3CC3)o2)cc1 , which call appears in the assay record?
active

Dear all, I need the recorded test outcome for O=C(Nc1ccc(-n2ccc3c(NC(=O)c4ccccc4)nccc32)cc1)Nc1ccc(Cl)c(Cl)c1 , thank you.
inactive

----------
Tested on: SF-295 CNS
Experiment: NCI tumour cell line growth inhibition, 48 h
Overview of recorded TGI for various molecules

O=C1c2cccc3cccc(c23)C2NCCCN12 (stereo unspecified)
> 100 µM
COC(=O)[C@@H](C)C[C@H](Cc1ccccc1)NC(=O)c1csc([C@@H](C[C@H](C(C)C)N(C)C(=O)[C@@H](NC(=O)[C@H]2CCCCN2C)C2CCCCC2)OC(C)=O)n1
> 25 µM
CN[C@@H](C)[C@@H](NC)c1ccccc1
> 100 µM
O=C(/N=C/c1c(O)c2ccccc2oc1=O)Oc1ccccc1
> 100 µM

// switching to the query molecule
Give TGI for COc1ccc(NC(=O)N(C)CC2(O)CCC(C(C)(C)C)CC2)cc1 (stereo unspecified)
91.7 µM

----------
TGI values by entry
Tested on: OVCAR-3 ovarian
Experiment: NCI tumour cell line growth inhibition, 48 h
Give a bare numeral; the unit µM is implied.

COc1cc2c(c(OC)c1OC)-c1ncc3cc4c(cc3c1C2)OCO4
38.1

Provide TGI value for the following compound: O=C1c2cccc3cccc(c23)C(=O)N1CCCNCCCNCCCCNCCCNCCCN1C(=O)c2cccc3cccc(c23)C1=O
19.6

Provide measured TGI value, entry: O=C(Oc1cccnc1)c1cc2cc(CCl)ccc2oc1=O
57.9

Output TGI of O=C1c2ccccc2-c2c1c1ccccc1c(=O)n2CCCCl
8.18

----------
Test system: SK-MEL-2 melanoma
Experiment: NCI tumour cell line growth inhibition, 48 h
Recorded TGI by entry
API: value field is a number in µM; no unit string.

Past entries and their recorded results:
CC1=C(C(=O)Nc2ccc(Cl)c(Cl)c2)C(c2cccc(Oc3ccccc3)c2)NC(=O)N1 (stereo not given)
17.9
C=C1C(=O)OC2CC(C)C3(O)CCC(=O)C3(C)CC12 (stereo not given)
71.5

Tell me TGI reported for COCC1(CO)C(=O)C2CCN1CC2 (stereo not given)
46.5

----------
System: OVCAR-3 ovarian
Experiment: NCI tumour cell line growth inhibition, 48 h
Property: TGI

COC1(OC)CC2C(=O)N(Cc3ccccc3)C1C=C2S(=O)(=O)c1ccccc1 (stereo unspecified)
28 µM
CC(C)C(=O)Nc1nc2c(ncn2C2OC(CO)C(O)C2O)c(=O)[nH]1 (stereo unspecified)
> 100 µM
Cc1ccc(-c2n[nH]c(=O)n2/N=C\c2ccc([N+](=O)[O-])cc2)cc1
> 100 µM
COC(=O)/C=C1\CCC(C)O1 (stereo unspecified)
> 100 µM
COC(=O)CC1C=CC(C)(OC)OO1 (stereo unspecified)
> 100 µM

We next turn to a different compound, shown below.
Supply recorded TGI for O=c1cc(CO)oc(C(O)c2ccccc2)c1O (stereo unspecified) here.
> 100 µM

----------
Quick list: GI50 per entry.
Test system: IGROV1 ovarian
Experiment: NCI tumour cell line growth inhibition, 48 h

Consider the following illustrative entries.
COc1cc(C(=O)N2CCN(c3ncccn3)CC2)c(N)cc1OCc1ccccc1
> 100 µM
C1=C\COCc2cc(ccc2OCCN2CCCC2)Nc2nccc(n2)-c2cccc(c2)COC/1
0.871 µM
N#Cc1c(N/N=C/c2ccc(Cl)cc2Cl)nc(N)nc1N1CCCC1
13.8 µM
OCCCNc1nccc(-c2c(-c3ccc(F)cc3)nn3cc(C(F)(F)F)ccc23)n1
12 µM
C[C@H]1[C@H](C)CC[C@]2(C(=O)Nc3ccc4ncccc4c3)CC[C@]3(C)C(=CC[C@@H]4[C@@]5(C)CCCNC(C)(C)[C@@H]5CC[C@]43C)[C@H]12
1.7 µM
N=C(N)c1ccc2nc(-c3cc(CC(=O)N[C@@H](CC(=O)O)C(=O)O)cc(-c4cc(S(N)(=O)=O)ccc4O)c3O)[nH]c2c1
> 100 µM
O[C@H](c1cc(C(F)(F)F)nc2c(C(F)(F)F)cccc12)[C@@H]1CCCCN1
1.17 µM
COc1ccc(O)c(C(=O)c2ccc(C(=O)N[C@H]3CCCNC[C@@H]3NC(=O)c3ccncc3)cc2)c1F
3.74 µM

Field: next molecule
Consider the molecule CCn1c(=O)c2c(=O)c3c4c(oc3oc2c2ccccc21)C(=O)c1ccccc1C4=O and give its recorded GI50.
> 50.1 µM

----------
Test system: IGROV1 ovarian
Experiment: NCI tumour cell line growth inhibition, 48 h
# TGI per entry
Kindly provide the numeric value in µM only, without the unit symbol.

CN(C)CC1CCC/C(=C\c2ccc(Cl)cc2)C1=O (stereo not given)
8.62

Read the next record carefully.
Indicate its recorded TGI; the compound in question is COc1ccc(-c2ccc(-c3ccc(C(=N)N)s3)s2)cc1
0.509

----------
Test system: 786-0 renal
Experiment: NCI tumour cell line growth inhibition, 48 h
Property: GI50

N#CC1=C(N)Oc2cc(O)ccc2C1c1cccc2ccccc12 (stereo not given)
13.4 µM
CCCOc1ccc2sc(NC(=O)OC)nc2c1
> 28.2 µM
CCOC(=O)c1c(NC(=O)c2cccc(C(F)(F)F)c2)sc2c(CN(C)C)c(O)ccc12
2.33 µM

// fetch GI50 given entry COCC1(CO)C(=O)C2CCN1CC2 (stereo not given)
17.4 µM

Item O=C(CSC1CCc2ccccc21)N/N=C/c1ccccc1O (stereo not given) : provide GI50
6.87 µM

Query GI50 for COc1ccc(-n2c(C)cc(-c3ccccc3)c2C)cc1
1.94 µM

Please report the measured GI50 for COc1cc(OC)c(/C=C/c2c3ccccc3cc[n+]2C)c(OC)c1
7.37 µM

Quick one: give measured GI50 for CCN1C(=O)N(CC)C2C1NN=c1s/c(=C3\C(=O)N(CC(C)(C)C)c4ccccc43)c(=O)n12 (stereo not given)
5.65 µM

Please give the documented GI50 of Cc1[nH]c(/C=C2\C(=O)Nc3ccccc32)c(C)c1CCC(=O)O
44.1 µM

Supply recorded GI50 for CN1C(=O)/C(=C/c2c(Cl)n(C)c3ccccc23)c2ccccc21 here.
3.09 µM

----------
Tested on: A549 NSCLC
Experiment: NCI tumour cell line growth inhibition, 48 h
// TGI lookup, one value per entry

Here's what some known entries look like.
CC(C)(S)C(N)C(=O)O (configuration not stated)
> 5000 µM
O=CN1CCN(CC(O)CN2CCCCC2)CC1 (configuration not stated)
> 100 µM

Next up:
Please tell me the measured TGI for CCOC(=O)C1(C/C=C/CBr)CCc2ccccc2C1=O (configuration not stated) ; system: A549 NSCLC.
30.6 µM

----------
Tested on: OVCAR-4 ovarian
Experiment: NCI tumour cell line growth inhibition, 48 h; in the data active means GI50 below about 0.43 µM; inactive means the rest
Result category, one only: True = active, False = inactive

Example entries and their recorded answers appear below.
COc1cc2c(c(OC)c1OC)-c1ncc3cc4c(cc3c1C2)OCO4
False
Cn1cc(C2=C(c3cccc(Br)c3)C(=O)NC2=O)c2ccccc21
False

We next turn to a different compound, shown below.
Which outcome did this test record for the compound O=C(Nc1ccc(-n2ccc3c(NC(=O)c4ccccc4)nccc32)cc1)Nc1ccc(Cl)c(Cl)c1 ?
False

----------
Listing of recorded GI50 by entry.
Test system: MOLT-4 leukemia
Experiment: NCI tumour cell line growth inhibition, 48 h

Use the examples below as a reference point.
CCCCCOc1ccc(/C=N/Nc2cc(C)nc3ccc(Br)cc23)cc1
1730 nM
CCCOc1ccc2sc(NC(=O)OC)nc2c1
2730 nM
O=S(=O)(Nc1ccc(F)cc1F)c1ccc(-c2cnc(C3CC3)o2)cc1
652 nM
O=C(Nc1ccc(-n2ccc3c(NC(=O)c4ccccc4)nccc32)cc1)Nc1ccc(Cl)c(Cl)c1
908 nM
COCC1(CO)C(=O)C2CCN1CC2 (stereo unspecified)
19400 nM

We next turn to a different molecule, shown below.
Tell me GI50 of CCN1C(=O)N(CC)C2C1NN=c1s/c(=C3\C(=O)N(CC(C)(C)C)c4ccccc43)c(=O)n12 (stereo unspecified) when tested on MOLT-4 leukemia.
3790 nM
